# Tested on: biotinyl-Val-oxazolone
# Assay Method Text: self-aminoacylation, catalytic enhancement (BVO) (fold over background); higher = more active; k-Seq, kA / k0A0; sequences stand for … in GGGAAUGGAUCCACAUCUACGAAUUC…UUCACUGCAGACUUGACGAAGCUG
Variants at the floor of the assay were thinned out.
The entries below come with measured self-aminoacylation values attached.
# output: bare number, no unit

Examples with their reported self-aminoacylation follow.
CUGCUUCAAACAAUCGGUCCG [Fam1A.1 aminoacylation ribozyme variant] ... 1.38
CGGUUUGCUAAUAGUCGCAAG [Fam3.1 aminoacylation ribozyme variant] ... 1.18

Prompt: Entry CCAGACUUCAAGCAAUCGGUA [Fam1B.1 aminoacylation ribozyme variant] has what self-aminoacylation?
Completion: 1.4

Prompt: Entry AAUUUUGCUAAUAGUCGGAAG [Fam3.1 aminoacylation ribozyme variant] has what self-aminoacylation?
Completion: 1.03

Prompt: Entry CCACUCUUCAGGCAAUCGGUC [Fam1B.1 aminoacylation ribozyme variant] has what self-aminoacylation?
Completion: 1.49

Prompt: Entry AUCACCCUGGCCAUCGAGUGA [Fam2.1 aminoacylation ribozyme variant] has what self-aminoacylation?
Completion: 3.96

Prompt: Entry CCACACGUCAACCAAUCGGUC [Fam1B.1 aminoacylation ribozyme variant] has what self-aminoacylation?
Completion: 1.47

Prompt: Entry AUUCACAUAGGUCAACGGGUG [Fam2.2 aminoacylation ribozyme variant] has what self-aminoacylation?
Completion: 2.81
